Reported Activity values follow for various molecules
- Tested on: Pseudomonas aeruginosa
- assay-details: Activity of Pseudomonas aeruginosa 166301 beta-lactamase VIM-16 relative to cephaloridine
Hi! Could you send only the number? It should be in %, unit omitted.

The examples below pair each entry with its known result.
1) CC(C)(O/N=C(\C(=O)N[C@@H]1C(=O)N2C(C(=O)[O-])=C(C[n+]3ccccc3)CS[C@H]12)c1csc(N)n1)C(=O)O    0.25
2) CO/N=C(\C(=O)N[C@@H]1C(=O)N2C(C(=O)O)=C(COC(C)=O)CS[C@H]12)c1csc(N)n1    91
3) CO/N=C(\C(=O)N[C@@H]1C(=O)N2C(C(=O)[O-])=C(C[N+]3(C)CCCC3)CS[C@H]12)c1csc(N)n1    0.35
4) C[C@@H](O)[C@H]1C(=O)N2C(C(=O)O)=C(SCCNC=N)C[C@H]12 [IMIPENEM ANHYDROUS]    51

Proceed to the following item.
// lookup Activity for O=C(Cc1cccs1)N[C@@H]1C(=O)N2C(C(=O)[O-])=C(C[n+]3ccccc3)CS[C@H]12
100

====

Reported kcat/Km values follow for various compounds
- System: Pseudomonas aeruginosa
- assay-details: Ratio of Kcat to Km for Pseudomonas aeruginosa 166301 beta-lactamase VIM-16
Hi! Could you send only the number? It should be in M⁻¹ s⁻¹, unit omitted.

The examples below pair each entry with its known result.
1. O=C(Cc1cccs1)N[C@@H]1C(=O)N2C(C(=O)[O-])=C(C[n+]3ccccc3)CS[C@H]12    64000
2. CO/N=C(\C(=O)N[C@@H]1C(=O)N2C(C(=O)[O-])=C(C[N+]3(C)CCCC3)CS[C@H]12)c1csc(N)n1    1500
3. C[C@@H](O)[C@H]1C(=O)N2C(C(=O)O)=C(SCCNC=N)C[C@H]12 [IMIPENEM ANHYDROUS]    510000
4. CO/N=C(\C(=O)N[C@@H]1C(=O)N2C(C(=O)O)=C(COC(C)=O)CS[C@H]12)c1csc(N)n1    340000

Proceed to the following item.
// lookup kcat/Km for CC(C)(O/N=C(\C(=O)N[C@@H]1C(=O)N2C(C(=O)[O-])=C(C[n+]3ccccc3)CS[C@H]12)c1csc(N)n1)C(=O)O
1400
